The origin of these recorded values is patent US9326513B2.

- Test system: Blumeria graminis f. sp. tritici (Erysiphe graminis f. sp. tritici)
- Assay Remarks: Blumeria graminis f. sp. tritici / wheat / leaf disc preventative (powdery mildew on wheat)
- Type: in vivo
- Condition: foliar, compared to untreated control leaf disks, read-out: disease control
Experimental Readout: pest or weed control at 200 ppm

{"Molecule": "CCN(C)/C=N/c1cc(Br)c(OC2Cc3cc(Br)c(OC)cc3C2)nc1C (centres unmarked) [Q.202]", "Test System": "Blumeria graminis f. sp. tritici (Erysiphe graminis f. sp. tritici)", "Test Value": "≥ 50%"}
{"Molecule": "CCN(C)/C=N/c1cc(Br)c(OCc2cc(-c3ccccc3)no2)nc1C [Q.073]", "Test System": "Blumeria graminis f. sp. tritici (Erysiphe graminis f. sp. tritici)", "Test Value": "≥ 50%"}
{"Molecule": "CCN(C)/C=N/c1cc(Br)c(OC(C)Cc2cc(F)cc(F)c2)nc1C (centres unmarked) [Q.217]", "Test System": "Blumeria graminis f. sp. tritici (Erysiphe graminis f. sp. tritici)", "Test Value": "≥ 50%"}
{"Molecule": "CCN(C)/C=N/c1cc(Br)c(OCc2c(C)cccc2C)nc1C [Q.325]", "Test System": "Blumeria graminis f. sp. tritici (Erysiphe graminis f. sp. tritici)", "Test Value": "≥ 50%"}
{"Molecule": "CCN(C)/C=N/c1cc(Br)c(OCc2ccccc2CCc2ccccc2)nc1C [Q.309]", "Test System": "Blumeria graminis f. sp. tritici (Erysiphe graminis f. sp. tritici)", "Test Value": "≥ 50%"}
{"Molecule": "CCN(C)/C=N/c1cc(Br)c(OC2CCc3ccc(/C(C)=N/OC)cc3C2)nc1C (centres unmarked) [Q.039]", "Test System": "Blumeria graminis f. sp. tritici (Erysiphe graminis f. sp. tritici)", "Test Value": "≥ 50%"}
{"Molecule": "CCN(C)/C=N/c1cc(Br)c(OC2CCC(C)=C(C)CC2)nc1C [Q.231]", "Test System": "Blumeria graminis f. sp. tritici (Erysiphe graminis f. sp. tritici)", "Test Value": "≥ 50%"}
{"Molecule": "CCN(C)/C=N/c1cc(Br)c(OC2CCN(C(=O)C(C)C)CC2)nc1C [Q.162]", "Test System": "Blumeria graminis f. sp. tritici (Erysiphe graminis f. sp. tritici)", "Test Value": "≥ 50%"}
{"Molecule": "CCN(C)/C=N/c1cc(Br)c(OC(C)(C)c2cc(C)no2)nc1C [Q.076]", "Test System": "Blumeria graminis f. sp. tritici (Erysiphe graminis f. sp. tritici)", "Test Value": "≥ 50%"}
{"Molecule": "CCN(C)/C=N/c1cc(Br)c(OCc2ccc(Cl)cc2)nc1C [Q.097]", "Test System": "Blumeria graminis f. sp. tritici (Erysiphe graminis f. sp. tritici)", "Test Value": "≥ 50%"}
{"Molecule": "CCN(C)/C=N/c1ccc(O[C@H]2CC[C@H](CC)CC2)nc1C [Q.380]", "Test System": "Blumeria graminis f. sp. tritici (Erysiphe graminis f. sp. tritici)", "Test Value": "≥ 50%"}
{"Molecule": "CCN(C)/C=N/c1cc(Br)c(OCCc2ccccc2)nc1C [Q.099]", "Test System": "Blumeria graminis f. sp. tritici (Erysiphe graminis f. sp. tritici)", "Test Value": "≥ 50%"}
{"Molecule": "CCN(C)/C=N/c1cc(Br)c(OC(C)c2ccccc2C(C)C)nc1C (centres unmarked) [Q.307]", "Test System": "Blumeria graminis f. sp. tritici (Erysiphe graminis f. sp. tritici)", "Test Value": "≥ 50%"}
{"Molecule": "CCN(C)/C=N/c1cc(C)c(O[C@H]2CC[C@H](C(C)C)CC2)nc1C [Q.185]", "Test System": "Blumeria graminis f. sp. tritici (Erysiphe graminis f. sp. tritici)", "Test Value": "≥ 50%"}
{"Molecule": "CCN(C)/C=N/c1cc(Br)c(OC2CCOCC2)nc1C [Q.244]", "Test System": "Blumeria graminis f. sp. tritici (Erysiphe graminis f. sp. tritici)", "Test Value": "≥ 50%"}
{"Molecule": "CCN(C)/C=N/c1cc(Br)c(OC(C)C[Si](C)(C)C)nc1C (centres unmarked) [Q.272]", "Test System": "Blumeria graminis f. sp. tritici (Erysiphe graminis f. sp. tritici)", "Test Value": "≥ 50%"}
{"Molecule": "CCOc1nc(C)c(/N=C/N(C)CC)cc1Br [Q.085]", "Test System": "Blumeria graminis f. sp. tritici (Erysiphe graminis f. sp. tritici)", "Test Value": "≥ 50%"}
{"Molecule": "CCCN(C)/C=N/c1cc(Br)c(OC(C)c2cc(F)cc(F)c2)nc1C (centres unmarked) [Q.191]", "Test System": "Blumeria graminis f. sp. tritici (Erysiphe graminis f. sp. tritici)", "Test Value": "≥ 50%"}
{"Molecule": "CCN(C)/C=N/c1cc(Br)c(OCCc2ccc(OC)cc2)nc1C [Q.011]", "Test System": "Blumeria graminis f. sp. tritici (Erysiphe graminis f. sp. tritici)", "Test Value": "≥ 50%"}
{"Molecule": "CCN(C)/C=N/c1cc(Br)c(OCc2ccccc2-c2ccccc2)nc1C [Q.294]", "Test System": "Blumeria graminis f. sp. tritici (Erysiphe graminis f. sp. tritici)", "Test Value": "≥ 50%"}
